- experiment-description: Solubility of the compound
- Type: physicochemical

{"molecule": "Cc1cc(N2CCC(N3CCCC3C)C2)ccc1NC(=O)c1cc(F)ccc1C (stereo unspecified)", "solubility (µg/mL)": 2670}

====

- experiment-description: Apparent permeability across human Caco2/TC7 cells
- Format: ADME, cell-based
- measurement-context: Caco-2
parameter: Papp

{"molecule": "Cc1cc(N2CCC(N3CCCC3C)C2)ccc1NC(=O)c1ccc2cc[nH]c2c1 (stereo not given)", "result": "7.81 ×10⁻⁶ cm/s"}
{"molecule": "Cc1cc(N2CCC(N3CCCC3C)C2)ccc1NC(=O)c1ccccc1F (stereo not given)", "result": "9.24 ×10⁻⁶ cm/s"}
{"molecule": "Cc1cc(C(=O)Nc2ccc(N3CCC(N4CCCC4C)C3)cc2)n[nH]1 (stereo not given)", "result": "9.19 ×10⁻⁶ cm/s"}
{"molecule": "Cc1cc(N2CCC(N3CCCC3C)C2)ccc1NC(=O)c1cn[nH]c1 (stereo not given)", "result": "0.35 ×10⁻⁶ cm/s"}
{"molecule": "Cc1cc(N2CCC(N3CCCC3C)C2)ccc1NC(=O)c1cc(F)ccc1C (stereo not given)", "result": "9.19 ×10⁻⁶ cm/s"}
